# assayed system: human αvβ3-integrin (Homo sapiens, UniProt P05106+P06756)
# Construct: purchased R&D 3050-AV-050
# method description: ELISA-type solid-phase binding assay: soluble αvβ3 competing for immobilized vitronectin
# stated conditions: competitive ELISA-type assay, referenced to internal standard cilengitide (L2)
Entries and their pIC50 values follow.
Just the number, please; pIC50 means minus log10 of the concentration in mol/L.

INSERT INTO measurements (smiles_notation, readout_value) VALUES
  ('C#CCCC(=O)NCCCOc1ccc(C(=O)N[C@H](CC(=O)O)Cc2ccc(OCCCNc3cc(OC)ccn3)cc2)cc1', 8.96);

# input for lookup
Query: Test system human αvβ3-integrin (Homo sapiens, UniProt P05106+P06756); read-out pIC50; what value for "COc1ccnc(NCCCOc2ccc(C[C@@H](CC(=O)O)NC(=O)c3ccc(OCCCNC(=O)CCCCCNC(=O)CCCCC[N+]4=C(/C=C/C=C/C=C5/N(C)c6ccc7ccccc7c6C5(C)C)C(C)(C)c5c4ccc4ccccc54)cc3)cc2)c1" ?
Reply: 8.99

Source of measurements: paper PMC11874007
